molecular target: Renin (Homo sapiens); test: Tested for the inhibition of human plasma renin
Sequence (P00797 whole entry): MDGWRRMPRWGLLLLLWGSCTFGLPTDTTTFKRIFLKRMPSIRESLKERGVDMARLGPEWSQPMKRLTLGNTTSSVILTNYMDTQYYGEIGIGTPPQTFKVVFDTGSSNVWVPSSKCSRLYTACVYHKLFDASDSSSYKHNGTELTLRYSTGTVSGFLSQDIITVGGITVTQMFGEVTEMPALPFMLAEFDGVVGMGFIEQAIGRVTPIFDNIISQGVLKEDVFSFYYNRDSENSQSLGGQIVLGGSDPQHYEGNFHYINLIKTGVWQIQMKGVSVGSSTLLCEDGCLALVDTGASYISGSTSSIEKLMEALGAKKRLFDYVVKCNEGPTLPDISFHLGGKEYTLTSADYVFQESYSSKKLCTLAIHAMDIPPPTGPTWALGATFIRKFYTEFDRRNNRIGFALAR
Where a SMILES comes first, the peptide text is derived from it. [ ]: non-standard residue; d: D form. The star is where a group is joined. 1Nal = N[C@@H](Cc1cccc2ccccc12)C(=O)O; Leu(ol) = CC(C)C[C@H](N)CO; Cbz = O=C(OCc1ccccc1)*
value-type: pIC50
pIC50 field: float, defined as -log10 of concentration (mol/L).

The examples below pair each entry with its known result.
CC(C)C[C@@H](CO)NC(=O)[C@H](Cc1c[nH]cn1)NC(=O)[C@H](Cc1cccc2ccccc12)NC(=O)OCc1ccccc1 (Cbz-[1Nal]-His-[Leu(ol)]); 5.44
CC(C)(C)OC(=O)N[C@@H](Cc1ccccc1)C(=O)N[C@@H](Cc1c[nH]cn1)C(=O)N[C@@H](Cc1ccccc1)[C@@H](O)CO; 5.59
O=C(N[C@@H](Cc1cccc2ccccc12)C(=O)N[C@@H](Cc1c[nH]cn1)C(=O)N[C@@H](Cc1ccccc1)[C@@H](O)CO)OCc1ccccc1; 6.00
CC[C@H](C)[C@H](NC(=O)[C@@H](C[C@H](O)[C@H](CC(C)C)NC(=O)[C@H](Cc1c[nH]cn1)NC(=O)[C@H](Cc1ccccc1)NC(=O)OC(C)(C)C)C(C)C)C(=O)NCc1ccccn1; 6.66
CC(C)C[C@@H](C=O)NC(=O)[C@H](Cc1c[nH]cn1)NC(=O)[C@H](Cc1cccc2ccccc12)NC(=O)OCc1ccccc1 (Cbz-[1Nal]-His-Leu-aldehyde); 7.10
CC(C)C[C@@H](C=O)NC(=O)[C@H](Cc1c[nH]cn1)NC(=O)[C@H](Cc1ccccc1)NC(=O)OCc1ccccc1 (Cbz-Phe-His-Leu-aldehyde); 6.12

Please state recorded pIC50 (tested on Renin (Homo sapiens)) of CC[C@H](C)CNC(=O)[C@H](C(C)C)[C@@H](O)[C@H](O)[C@H](CC(C)C)NC(=O)[C@H](Cc1c[nH]cn1)NC(=O)[C@H](Cc1ccccc1)NC(=O)OC(C)(C)C
5.47

Moving on to the next compound: CC[C@H](C)[C@H](NC(=O)[C@H](C(C)C)[C@@H](O)[C@H](O)[C@H](CC(C)C)NC(=O)[C@H](Cc1c[nH]cn1)NC(=O)[C@H](Cc1ccccc1)NC(=O)OC(C)(C)C)C(=O)NCc1ccccn1
6.46

Moving on to the next compound: CC[C@H](C)[C@H](NC(=O)[C@@H](CC(=O)[C@H](CC(C)C)NC(=O)[C@H](Cc1c[nH]cn1)NC(=O)[C@H](Cc1ccccc1)NC(=O)OC(C)(C)C)C(C)C)C(=O)NCc1ccccn1
5.51

Source of measurements: ChEMBL document CHEMBL1123769
